Reference source: the OPERA property sets (Mansouri et al. 2018)

propertyMeasured: boiling point (°C)

[[record]]
compound = "Cc1cc(C)cc(N)c1"
propertymeasured = "boiling point"
measurementunits = "°C"
measurement = 220

[[record]]
compound = "CCc1cccc(CC)c1"
propertymeasured = "boiling point"
measurementunits = "°C"
measurement = 181

[[record]]
compound = "COCC(C)OC(C)=O (stereo not drawn)"
propertymeasured = "boiling point"
measurementunits = "°C"
measurement = 146

[[record]]
compound = "Cc1cc[nH]n1"
propertymeasured = "boiling point"
measurementunits = "°C"
measurement = 204

[[record]]
compound = "CC(=O)c1ccc(C)cc1C"
propertymeasured = "boiling point"
measurementunits = "°C"
measurement = 228

[[record]]
compound = "C=C(CCC)CCC"
propertymeasured = "boiling point"
measurementunits = "°C"
measurement = 118

[[record]]
compound = "CC#CC"
propertymeasured = "boiling point"
measurementunits = "°C"
measurement = 26.9

[[record]]
compound = "CCCCCO[N+](=O)[O-]"
propertymeasured = "boiling point"
measurementunits = "°C"
measurement = 157

[[record]]
compound = "Brc1cccc(-c2ccccc2)c1"
propertymeasured = "boiling point"
measurementunits = "°C"
measurement = 300

[[record]]
compound = "CC(C)C(=O)OC(=O)C(C)C"
propertymeasured = "boiling point"
measurementunits = "°C"
measurement = 183

[[record]]
compound = "CCCCC(C)=O"
propertymeasured = "boiling point"
measurementunits = "°C"
measurement = 128

[[record]]
compound = "CC1C=CCC1 (stereo not drawn)"
propertymeasured = "boiling point"
measurementunits = "°C"
measurement = 64.9

[[record]]
compound = "C[Si](C)(Cl)CCl"
propertymeasured = "boiling point"
measurementunits = "°C"
measurement = 116

[[record]]
compound = "CCCCC(C)C(C)CC (stereo not drawn)"
propertymeasured = "boiling point"
measurementunits = "°C"
measurement = 163

[[record]]
compound = "COc1ccccc1OC"
propertymeasured = "boiling point"
measurementunits = "°C"
measurement = 206

[[record]]
compound = "CCc1cccc(Cl)c1"
propertymeasured = "boiling point"
measurementunits = "°C"
measurement = 184

[[record]]
compound = "CCCCCCCS"
propertymeasured = "boiling point"
measurementunits = "°C"
measurement = 177

[[record]]
compound = "C[Si](Cl)(c1ccccc1)c1ccccc1"
propertymeasured = "boiling point"
measurementunits = "°C"
measurement = 295


---

boiling point less than 200 °C is T; boiling point greater than or equal to 200 °C is F.

[[record]]
itemsmiles = "CO[C@H]1C=C[C@H](OC)O1"
label = "T"

[[record]]
itemsmiles = "CCCCCCCCCCCCCCCCCCN"
label = "F"

[[record]]
itemsmiles = "O=C(Cl)c1cccc(F)c1"
label = "T"

[[record]]
itemsmiles = "C=C(CC(=O)OCC)C(=O)OCC"
label = "F"

[[record]]
itemsmiles = "CCCC(CCC)C(C)C"
label = "T"

[[record]]
itemsmiles = "C=CCCl"
label = "T"

[[record]]
itemsmiles = "CC(C)COCOCC(C)C"
label = "T"

[[record]]
itemsmiles = "CCC(=O)CC(C)C"
label = "T"

[[record]]
itemsmiles = "C1=Cc2cccc3cccc1c23"
label = "F"


---

Consider the following compounds and their measured boiling point readings.
propertyMeasured: boiling point (°C)

[[record]]
compound = "Cc1ccc(O)cc1O"
measurement = 268

[[record]]
compound = "CC1(C)C2C=C[C@]1(C)CC2"
measurement = 146

[[record]]
compound = "CN(C)c1ccc(C#N)cc1"
measurement = 318

[[record]]
compound = "CC(Cl)(Cl)C(=O)Cl"
measurement = 118

[[record]]
compound = "CN(C)CCCCN(C)C"
measurement = 168

[[record]]
compound = "CCCCC(C)C(C)(C)C (stereo not drawn)"
measurement = 158

[[record]]
compound = "FC(F)(Cl)CCl"
measurement = 46.8

[[record]]
compound = "Nc1ccccc1[N+](=O)[O-]"
measurement = 284

[[record]]
compound = "FCC1CO1 (stereo not drawn)"
measurement = 85.5

[[record]]
compound = "CC(C)c1ccc(C(C)C)cc1"
measurement = 210

[[record]]
compound = "COc1cc(Cl)ccc1N"
measurement = 260

[[record]]
compound = "C1CN(CCN2CCOCC2)CCO1"
measurement = 285

[[record]]
compound = "CC(C)OCCO"
measurement = 145

[[record]]
compound = "CCC(C)CC(C)(C)C (stereo not drawn)"
measurement = 126

[[record]]
compound = "ClCc1cccc(Cl)c1"
measurement = 216

[[record]]
compound = "C#CC(O)(CC)CC"
measurement = 138

[[record]]
compound = "Brc1ccsc1"
measurement = 150

[[record]]
compound = "CC1CCc2ccccc2C1 (stereo not drawn)"
measurement = 221

[[record]]
compound = "O=C1CCCC(=O)O1"
measurement = 287

[[record]]
compound = "CNC(C)C"
measurement = 50.4

[[record]]
compound = "Cc1cccc(CO)c1"
measurement = 216

[[record]]
compound = "CCOC(=O)C(=O)CC(C)=O"
measurement = 214

[[record]]
compound = "O=C(O)C(F)(F)C(F)(F)C(F)(F)C(F)(F)C(F)(F)C(F)(F)C(F)(F)F"
measurement = 189

[[record]]
compound = "CC"
measurement = -88.6

[[record]]
compound = "CCOc1cccc(N(CC)CC)c1"
measurement = 286

[[record]]
compound = "COc1ccc(CO)cc1"
measurement = 259

[[record]]
compound = "OCc1c(F)c(F)c(F)c(F)c1F"
measurement = 181

[[record]]
compound = "ClC1=C(Cl)C(Cl)(Cl)C(Cl)=C1Cl"
measurement = 239

[[record]]
compound = "Clc1ccc(Cl)s1"
measurement = 162

[[record]]
compound = "Oc1ccc(O)cc1"
measurement = 287

[[record]]
compound = "Cc1ccc(N)c(N)c1"
measurement = 265

[[record]]
compound = "OCC(F)(F)F"
measurement = 74

[[record]]
compound = "CCC#CCC"
measurement = 81

[[record]]
compound = "Cc1ccc2cnccc2c1"
measurement = 266

[[record]]
compound = "CC1=CC(=O)CCC1(C)C"
measurement = 217

[[record]]
compound = "C=CC(OC(C)=O)OC(C)=O"
measurement = 180

[[record]]
compound = "Cc1cc(C(C)(C)C)c(C)cc1O"
measurement = 264

[[record]]
compound = "CC1CCCC(C)C1 (stereo not drawn)"
measurement = 122

[[record]]
compound = "CNC1CCCCC1"
measurement = 147

[[record]]
compound = "CCN(CC)C(=O)c1cccc(C)c1"
measurement = 290

[[record]]
compound = "CCCCOC(=O)CCC(C)=O"
measurement = 238

[[record]]
compound = "CCOc1cccc(F)c1"
measurement = 172

[[record]]
compound = "CN(C)c1ccc2ccccc2c1"
measurement = 305

[[record]]
compound = "Clc1ccc(C(Cl)Cl)cc1Cl"
measurement = 257

[[record]]
compound = "CCCCC(=O)c1ccc(C)cc1"
measurement = 256

[[record]]
compound = "CCC(=O)C(C)CC (stereo not drawn)"
measurement = 134

[[record]]
compound = "CCNCc1ccccc1"
measurement = 194

[[record]]
compound = "O=[N+]([O-])c1ccc(Oc2ccccc2)cc1"
measurement = 320

[[record]]
compound = "CCCCOC(=O)c1ccccc1C(=O)OCc1ccccc1"
measurement = 370

[[record]]
compound = "CCC(=O)OC(C)C"
measurement = 110

[[record]]
compound = "COc1ccnc2ccccc12"
measurement = 245

[[record]]
compound = "CCO"
measurement = 78.2

[[record]]
compound = "CCOC(C)=O"
measurement = 77.1

[[record]]
compound = "CCCCCCCCCCCCCC=O"
measurement = 260

[[record]]
compound = "CC1CC(C)CC(C)C1 (mixture of isomers)"
measurement = 141

[[record]]
compound = "CCC(C)(Cl)CCl (stereo not drawn)"
measurement = 134

[[record]]
compound = "O=Cc1cccc2ccccc12"
measurement = 292

[[record]]
compound = "COc1ccc(CC=O)cc1"
measurement = 256

[[record]]
compound = "C(CC1CCNCC1)CC1CCNCC1"
measurement = 329

[[record]]
compound = "CCCC=CCO"
measurement = 157

[[record]]
compound = "CCc1cc(C)cc(O)c1"
measurement = 236

[[record]]
compound = "CCOc1ccc(F)cc1"
measurement = 173

[[record]]
compound = "COS(=O)(=O)c1ccc(C)cc1"
measurement = 292

[[record]]
compound = "O=C(Oc1ccccc1)Oc1ccccc1"
measurement = 306

[[record]]
compound = "CCCCCCC(C)=O"
measurement = 172

[[record]]
compound = "CCCCCCCCCCCCCCCCCCC"
measurement = 330

[[record]]
compound = "CCc1c(CC)c(CC)c(CC)c(CC)c1CC"
measurement = 298

[[record]]
compound = "CC1(c2ccccc2)CCOCO1 (stereo not drawn)"
measurement = 256

[[record]]
compound = "CNc1ccccc1C"
measurement = 208

[[record]]
compound = "Nc1ccc(-c2ccc(N)cc2)cc1"
measurement = 401

[[record]]
compound = "C1CO1"
measurement = 10.6

[[record]]
compound = "CCCC(=O)OCC"
measurement = 122

[[record]]
compound = "CCC[Si](Cl)(Cl)Cl"
measurement = 124

